So I've got pIC50 readings for Tyrosine-protein kinase CSK (Homo sapiens, UniProt P41240), take a look.
pIC50: −log10 of the molar value.

In the examples that follow, each entry is paired with its recorded pIC50.
- O=c1c(-c2ccc(O)cc2)coc2cc(O)cc(O)c12: < 4.30
- C=C(C)Cn1c(O)c(O)sc1=NN=c1scc(O)n1C: < 4.00
- C=C(C)Cn1c(O)c(C)sc1=NN=c1scc(O)n1C: < 4.00

We now examine a further compound.
Observed pIC50, Tyrosine-protein kinase CSK (Homo sapiens, UniProt P41240), C=C(C)Cn1c(O)c(CN(C)C)sc1=NN=c1scc(O)n1C : 5.15

====

Target: cAMP-dependent protein kinase catalytic subunit alpha (Homo sapiens, UniProt P17612)
Assay: Kinase Assay
pIC50: −log10 of the molar value.
Catalogue of pIC50 readings, one per entry.

# count of solved cases: 4
• O=c1c(-c2ccc(O)cc2)coc2cc(O)cc(O)c12 = < 4.00
• C=C(C)Cn1c(O)c(CN(C)C)sc1=NN=c1scc(O)n1C = < 3.30
• C=C(C)CN1C(=O)C(=C)SC1=NN=c1scc(O)n1C = < 3.30
• C=C(C)Cn1c(O)c(OS(=O)O)sc1=NN=c1scc(O)n1C = < 4.00

From here, focus on the item given below.
Memo: C=CCN1C(=O)C(=C)SC1=NN=c1scc(O)n1C , reported pIC50: < 3.30

====

List of pIC50 tested on Tyrosine-protein kinase ABL1 (Homo sapiens, UniProt P00519).
Sequence (P00519 whole entry): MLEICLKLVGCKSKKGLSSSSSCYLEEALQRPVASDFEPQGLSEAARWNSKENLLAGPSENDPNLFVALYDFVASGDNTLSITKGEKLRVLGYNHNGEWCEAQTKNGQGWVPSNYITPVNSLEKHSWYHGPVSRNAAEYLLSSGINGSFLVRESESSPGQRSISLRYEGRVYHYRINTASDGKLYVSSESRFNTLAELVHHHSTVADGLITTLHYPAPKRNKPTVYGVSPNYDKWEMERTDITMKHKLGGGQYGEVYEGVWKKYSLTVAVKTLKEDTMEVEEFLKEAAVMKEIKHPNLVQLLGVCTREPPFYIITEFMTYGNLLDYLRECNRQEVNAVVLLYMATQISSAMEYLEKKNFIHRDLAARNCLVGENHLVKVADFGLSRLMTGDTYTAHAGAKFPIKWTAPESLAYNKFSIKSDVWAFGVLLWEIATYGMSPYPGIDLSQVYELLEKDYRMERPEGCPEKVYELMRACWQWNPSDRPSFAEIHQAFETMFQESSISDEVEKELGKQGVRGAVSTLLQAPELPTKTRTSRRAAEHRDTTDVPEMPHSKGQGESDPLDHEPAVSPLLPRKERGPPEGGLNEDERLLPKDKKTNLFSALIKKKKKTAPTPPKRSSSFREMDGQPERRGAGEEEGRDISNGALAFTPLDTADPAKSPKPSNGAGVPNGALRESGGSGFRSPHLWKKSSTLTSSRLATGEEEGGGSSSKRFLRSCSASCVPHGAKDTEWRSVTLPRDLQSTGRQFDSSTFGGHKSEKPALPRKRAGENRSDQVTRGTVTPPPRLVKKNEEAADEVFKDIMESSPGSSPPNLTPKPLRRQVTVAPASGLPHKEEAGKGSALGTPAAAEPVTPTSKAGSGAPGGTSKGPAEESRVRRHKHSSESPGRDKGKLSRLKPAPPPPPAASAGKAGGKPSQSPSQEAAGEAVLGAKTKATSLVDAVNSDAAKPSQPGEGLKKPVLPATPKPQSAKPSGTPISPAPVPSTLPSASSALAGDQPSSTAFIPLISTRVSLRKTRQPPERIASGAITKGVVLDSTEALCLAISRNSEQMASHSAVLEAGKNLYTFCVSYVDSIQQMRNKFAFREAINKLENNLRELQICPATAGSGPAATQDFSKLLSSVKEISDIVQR
pIC50: −log10 of the molar value.

* C=C(C)CN1C(=O)C(=C)SC1=NN=c1scc(O)n1C | 4.00
* C=CCn1c(O)c(CC(=O)O)sc1=NN=c1scc(O)n1C | < 4.00
* C=C(C)Cn1c(O)c(CO)sc1=NN=c1scc(O)n1C | < 4.00

// sample C=C(C)Cn1c(O)c(C)sc1=NN=c1scc(O)n1C , its pIC50 was < 4.00

====

// values below are IC50; system is Protein kinase C alpha type (Homo sapiens, UniProt P17252)

Please review the following examples before continuing.
* C=C(C)Cn1c(O)c(OS(=O)O)sc1=NN=c1scc(O)n1C | > 100 µM
* C=C(C)Cn1c(O)csc1=NN=c1scc(O)n1C | > 100 µM
* C=CCN1C(=O)C(=C)SC1=NN=c1scc(O)n1C | > 500 µM
* C=C(C)Cn1c(O)c(C)sc1=NN=c1scc(O)n1C | > 100 µM
* C=CCn1c(O)c(C)sc1=NN=c1scc(O)n1C | > 100 µM

With those in mind, consider the next molecule.
Tested system Protein kinase C alpha type (Homo sapiens, UniProt P17252); IC50 recorded for O=c1c(-c2ccc(O)cc2)coc2cc(O)cc(O)c12 was 15 µM
